// provenance: patent US20130281399A1

target: Brd4 bromodomain 1 (Homo sapiens); construct: made in house; host or cells: E. coli BL21(DE3); assay: Inhibition of binding of tetra-acetylated histone H4 to Brd4 bromodomain 1 (TR-FRET); details: His-tagged Brd4 bromodomain 1 200 nM, tetra-acetylated histone H4 peptide 25-50 nM, 2 hours room temperature
READOUT_TYPE: FRET activity (<50 uM)

In the examples that follow, each entry is paired with its recorded FRET activity (<50 uM).
[[record]]
chem_smiles = "COc1cc(OC)c2c(=O)[nH]c(-c3ccc(N4CCC(NC(C)C)CC4)cc3)nc2c1"
result = "Active"

[[record]]
chem_smiles = "COc1cc(OC)c2c(=O)[nH]c(-c3ccc(OCCN4CCCC4)c(C)c3)nc2c1"
result = "Active"

[[record]]
chem_smiles = "COc1cc(OC)c2c(=O)[nH]c(-c3ccc(N4CCC(N(Cc5ccccc5)C(C)=O)CC4)nc3)nc2c1"
result = "Active"

[[record]]
chem_smiles = "COc1ccc2c(=O)[nH]c(-c3cc(C)c(OCCN4CCCC4)c(C)c3)nc2c1"
result = "Inactive"

[[record]]
chem_smiles = "COc1cc(OC)c2c(=O)[nH]c(-c3cc(C)nc(C)c3)nc2c1"
result = "Active"

[[record]]
chem_smiles = "COc1cc(OCCN2CCCC2)cc(-c2nc3cc(OC)cc(OC)c3c(=O)[nH]2)c1"
result = "Active"

[[record]]
chem_smiles = "COc1cc(OC)c2c(=O)[nH]c(-c3ccc(N4CCN(C(=O)c5cnn(C)c5Cl)CC4)cc3)nc2c1"
result = "Inactive"

[[record]]
chem_smiles = "COc1cc(OC)c2c(=O)[nH]c(-c3cc(C)c(OCCN4CCN(C(C)=O)CC4)c(C)c3)nc2c1"
result = "Active"


State its FRET activity (<50 uM): `COc1cc(OC)c2c(=O)[nH]c(-c3cccc(OCCO)c3)nc2c1`
Active

State its FRET activity (<50 uM): `COc1cc(OC)c2c(=O)[nH]c(-c3ccc4[nH]c(CO)cc4c3)nc2c1`
Active

State its FRET activity (<50 uM): `Cc1cc(-c2nc3cc(Cl)cc(Cl)c3c(=O)[nH]2)cc(C)c1OCCN1CCCC1`
Inactive
